Value source: ChEMBL document CHEMBL1127828

Consider the following compounds; for each one, report its log10 of IC50.
Log10 applied to IC50; unit prior to transform: µM.

[in] Param readout= log10 of IC50; system= Sodium-dependent serotonin transporter (Homo sapiens, UniProt P31645); entry= COC(=O)[C@@H]1C2CCC(C[C@@H]1OC(c1ccc(F)cc1)c1ccc(F)cc1)N2C (some centres undefined) ; returns value.
[out] 0.55

[in] Param readout= log10 of IC50; system= Sodium-dependent serotonin transporter (Homo sapiens, UniProt P31645); entry= COC(=O)C1C2CC[C@H](C[C@@H]1OC(c1ccc(F)cc1)c1ccc(F)cc1)N2C (stereo in doubt; R-9) ; returns value.
[out] 0.16

[in] Param readout= log10 of IC50; system= Sodium-dependent serotonin transporter (Homo sapiens, UniProt P31645); entry= COC(=O)C1C2CC[C@H](C[C@@H]1c1ccc(I)cc1)N2C (some centres undefined) ; returns value.
[out] -2.60

[in] Param readout= log10 of IC50; system= Sodium-dependent serotonin transporter (Homo sapiens, UniProt P31645); entry= COC(=O)C1C2CC[C@H](C[C@H]1OC(c1ccc(F)cc1)c1ccc(F)cc1)N2C (stereo in doubt; S-7) ; returns value.
[out] 0.61

[in] Param readout= log10 of IC50; system= Sodium-dependent serotonin transporter (Homo sapiens, UniProt P31645); entry= COC(=O)C1C2CC[C@H](C[C@H]1OC(c1ccc(F)cc1)c1ccc(F)cc1)N2C (stereo in doubt; R-10) ; returns value.
[out] 0.96

[in] Param readout= log10 of IC50; system= Sodium-dependent serotonin transporter (Homo sapiens, UniProt P31645); entry= COC(=O)C1C2CC[C@H](C[C@H]1OC(c1ccc(F)cc1)c1ccc(F)cc1)N2C (stereo in doubt; R-8) ; returns value.
[out] 0.30

[in] Param readout= log10 of IC50; system= Sodium-dependent serotonin transporter (Homo sapiens, UniProt P31645); entry= COC(=O)[C@@H]1[C@H]2CCC(C[C@H]1OC(c1ccc(F)cc1)c1ccc(F)cc1)N2C ; returns value.
[out] 0.26

[in] Param readout= log10 of IC50; system= Sodium-dependent serotonin transporter (Homo sapiens, UniProt P31645); entry= COC(=O)C1C2CC[C@H](C[C@H]1OC(c1ccc(F)cc1)c1ccc(F)cc1)N2C (stereo in doubt; S-10) ; returns value.
[out] 0.69

[in] Param readout= log10 of IC50; system= Sodium-dependent serotonin transporter (Homo sapiens, UniProt P31645); entry= COC(=O)C1C2CC[C@H](C[C@@H]1OC(c1ccc(F)cc1)c1ccc(F)cc1)N2C (stereo in doubt; R-7) ; returns value.
[out] 0.74
